Values from patent US20240376056A1

Biological target: IL-17A/A (Homo sapiens, UniProt Q16552)
Sequence (Q16552 24-155): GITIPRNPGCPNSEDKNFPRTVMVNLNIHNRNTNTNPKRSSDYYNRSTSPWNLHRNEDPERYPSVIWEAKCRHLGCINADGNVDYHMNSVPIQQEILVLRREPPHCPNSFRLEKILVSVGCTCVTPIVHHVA
Assay: HEK-Blue IL-17A/A inhibition assay (SEAP reporter)
Details: HEK-Blue cells (HEK 293 expressing IL-17RA, IL-17RC, Act1); IL-17A/A stimulation; 20 hours; SEAP read at A630; 4-parameter fit
pIC50: −log10 of the molar value. Structures can show the parent of a compound that is named as a salt.
parameter measured: pIC50

// known answers, use as guide
>>> assay_result("CCn1nccc1C(=O)N[C@H](C(=O)Nc1cc(C)c(C(C)C(=O)N(C)CC(F)(F)F)cc1F)C(C1CC1)C1CC1 (single isomer, unassigned) [Compound 76]")
"> 7.00"
>>> assay_result("CC(C)n1nccc1C(=O)N[C@H](C(=O)Nc1ccc([C@H](C)C(=O)N2C[C@@H](F)C[C@@H]2C(F)(F)F)cc1F)C(C1CC1)C1CC1")
"< 6.00"
>>> assay_result("CC[C@@H](c1ccc(F)cc1)[C@H](NC(=O)c1ccnn1C(C)C)C(=O)Nc1cc(OC)c(C(C)C(=O)NCC(F)(F)F)cc1F (stereo partly drawn)")
"6.00 to 7.00"
>>> assay_result("Cc1cc(NC(=O)[C@@H](NC(=O)c2ccnn2C(C)C)C2CCC(F)(F)CC2)c(F)cc1C(C)C(=O)N(C)CC(F)(F)F (stereo partly drawn)")
"> 7.00"
>>> assay_result("CC(=O)NC(C(=O)NCC(F)(F)F)c1ccc(NC(=O)[C@@H](NC(=O)c2ccnn2C(C)C)C(C2CC2)C2CC2)c(F)c1 (stereo partly drawn) [Compound 190]")
"< 6.00"
>>> assay_result("CC(C)n1nccc1C(=O)N[C@H](C(=O)Nc1ccc([C@H](C)C(=O)N2CCOC2C(F)(F)F)cc1F)C(C1CC1)C1CC1 (single isomer, unassigned) [Compound 49]")
"6.00 to 7.00"

What pIC50 value was documented for this compound, CC(C)n1nccc1C(=O)N[C@H](C(=O)Nc1ccc([C@H](C)C(=O)N[C@H](CO)C2CCC2)cc1F)C(C1CC1)C1CC1 ?
< 6.00

Proceed to CCn1nccc1C(=O)N[C@H](C(=O)Nc1cc(OC(F)(F)F)c(C(C)C(=O)N(C)CC(F)(F)F)cc1F)C(C1CC1)C1CC1 (stereo partly drawn) [Compound 253]
> 7.00

Thanks! And CC(C)n1nccc1C(=O)N[C@H](C(=O)Nc1ccc([C@H](C)C(=O)N2CC(O)CC2C(F)(F)F)cc1F)C(C1CC1)C1CC1 (single isomer, unassigned) [Compound 145] ?
< 6.00

Also Cc1cc(NC(=O)[C@@H](NC(=O)c2nonc2C)C2CCC(F)(F)CC2)c(F)cc1C(C)C(=O)NCC(F)(F)F (stereo partly drawn) ?
< 6.00

How about this compound: CC(C)n1nccc1C(=O)N[C@H](C(=O)Nc1ccc([C@H](C)C(=O)N2CC[C@H]2C(F)(F)F)cc1F)C(C1CC1)C1CC1
6.00 to 7.00

What do you have for CC(C(=O)NC1CCC1(F)F)c1cc(F)c(NC(=O)[C@@H](NC(=O)c2ccnn2C(C)C)C(C2CC2)C2CC2)cc1C(F)(F)F (single isomer, unassigned) [Compound 231] ?
6.00 to 7.00

CC(C)n1nccc1C(=O)N[C@H](C(=O)Nc1ccc([C@H](C)C(=O)N2CCCCC2C(F)(F)F)cc1F)C(C1CC1)C1CC1 (single isomer, unassigned) [Compound 21] , same question.
6.00 to 7.00

Also need Cc1cc(NC(=O)C(NC(=O)c2ccnn2C(C)C)C(C2CC2)C2CC2)c(F)cc1C(C)C(=O)N1CC(C)OCC1C(F)(F)F (stereo not drawn) , thanks.
> 7.00

Same lookup for CC(C)n1nccc1C(=O)N[C@H](C(=O)Nc1ccc([C@H](C)C(=O)NC(CN)C(F)(F)F)cc1F)C(C1CC1)C1CC1 (stereo partly drawn) [Compound 157, hydrochloride] , please.
6.00 to 7.00

Cool, now CC(C)n1nccc1C(=O)N[C@H](C(=O)Nc1ccc([C@H](C)C(=O)NCc2ccccc2C(F)(F)F)cc1F)C(C1CC1)C1CC1
< 6.00

Entry CCn1nccc1C(=O)N[C@H](C(=O)Nc1cc(C)c(C(C)C(=O)N(C)CC(F)(F)F)cc1F)C1CCC(F)(F)CC1 (stereo partly drawn) please
> 7.00

Request: CC(C)n1nccc1C(=O)N[C@H](C(=O)Nc1ccc([C@H](C)C(=O)N2CC(O)CC2C(F)(F)F)cc1F)C(C1CC1)C1CC1 (single isomer, unassigned) [Compound 144]
< 6.00

Would you mind doing CCC(C(=O)N(C)CC(F)(F)F)c1ccc(NC(=O)[C@@H](NC(=O)c2ccnn2C(C)C)C(C2CC2)C2CC2)c(F)c1 (stereo partly drawn) as well?
> 7.00

How about CCn1nccc1C(=O)N[C@H](C(=O)Nc1cc(C)c(C(C)C(=O)NCC(F)(F)F)cc1F)[C@H]1CC[C@H](C)CC1 (stereo partly drawn) ?
< 6.00

Try this compound next: CCc1nonc1C(=O)N[C@H](C(=O)Nc1cc(C)c(C(C)C(=O)NCC(F)(F)F)cc1F)C(C1CC1)C1CC1 (stereo partly drawn)
6.00 to 7.00
